Hi there, I'd appreciate the recorded IC50 for every entry that follows.
experimental_target: Muscarinic acetylcholine receptor
assay_info: Binding affinity towards muscarinic receptor using [3H]cis-methyldioxolane (CMD) to label agonist sites in membrane preparations from rat neocortex
Type: tissue-based
Answers are plain numbers, in µM.

Examples from the recorded data:
COc1ccccc1C#CCO/N=C1\CN2CCC1C2 (stereo not drawn) = 0.219
Clc1ccccc1C#CCO/N=C1\CN2CCC1C2 (stereo not drawn) = 0.012

Would you kindly look at the next entry?
Given Cc1ccc(C#CCO/N=C2\CN3CCC2C3)cc1 (stereo not drawn) , state its recorded IC50.
0.089

###

experimental_target: Muscarinic acetylcholine receptor
assay_info: Binding affinity towards muscarinic receptor using [3H]quinuclidinyl benzilate (QNB) to label antagonist sites in membrane preparations from rat neocortex
readout_kind: IC50 (µM)
Answers are plain numbers, in µM.

Examples from the recorded data:
O=[N+]([O-])c1cccc(C#CCO/N=C2\CN3CCC2C3)c1 (centres undefined) = 6.399
Fc1ccccc1C#CCO/N=C1\CN2CCC1C2 (centres undefined) = 4.443
C(#Cc1ccccc1)CO/N=C1\CN2CCC1C2 (centres undefined) = 5.012
COc1ccc(C#CCO/N=C2\CN3CCC2C3)cc1 (centres undefined) = 13.101
Fc1ccc(C#CCO/N=C2\CN3CCC2C3)cc1 (centres undefined) = 6.092
COc1ccc(C#CCO/N=C2\CN3CCC2C3)cc1OC (centres undefined) = 42.449
Clc1ccc(C#CCO/N=C2\CN3CCC2C3)cc1 (centres undefined) = 6.3
FC(F)(F)c1cccc(C#CCO/N=C2\CN3CCC2C3)c1 (centres undefined) = 4.237

Value wanted: IC50 (Muscarinic acetylcholine receptor) of entry Clc1cccc(C#CCO/N=C2\CN3CCC2C3)c1 (centres undefined)
3.882
